Measured melting point of individual entries
Property Label: melting point

INSERT INTO assay_data (structure, measurement) VALUES
  ('O=C(Cc1cc[nH]n1)Nc1nc2c(NC(=O)c3ccccc3)cccc2[nH]1', '280 °C (dec.)'),
  ('O=C(Cc1cc[nH]n1)Nc1nc2cc(NC(=O)c3ccccc3)ccc2[nH]1', '292 to 293 °C'),
  ('COc1ccccc1C(=O)Cn1ccc(C(=O)Nc2nc3ccccc3[nH]2)n1', '168 to 170 °C'),
  ('O=C(Cc1cc[nH]n1)Nc1nc2cc(Cl)c(Cl)cc2[nH]1', '> 300 °C'),
  ('O=C(Cc1cc[nH]n1)Nc1nc2c([N+](=O)[O-])cccc2[nH]1', '280 to 282 °C');

###

Property Label: melting point

INSERT INTO results (compound, measurement) VALUES
  ('O=C(Cc1cc[nH]n1)Nc1nc2cc(OC(F)(F)F)ccc2[nH]1 [Compound 21]', '270 to 274 °C'),
  ('O=C(Nc1nc2cc([N+](=O)[O-])ccc2[nH]1)c1cc[nH]n1 [Compound 12]', '> 300 °C'),
  ('N#Cc1ccc2[nH]c(NC(=O)Cc3cc[nH]n3)nc2c1 [Compound 23]', '267 to 268 °C'),
  ('O=C(Cc1cc[nH]n1)Nc1nc2cc(C(F)(F)F)ccc2[nH]1 [Compound 16]', '275 to 277 °C'),
  ('COc1ccc2[nH]c(NC(=O)Cc3cc[nH]n3)nc2c1 [Compound 17]', '239 to 240 °C');

###

# Target Entity: truncated CK1δ (Homo sapiens)
# Construct: truncated CK1δ, recombinant human, GST-tagged, aa 1-294, Merck Millipore; GST
# Method Summary: CK1δ luminescent kinase assay (Kinase Glo kit)
# Condition Notes: truncated recombinant human CK1δ (aa 1-294), casein substrate, 2 μM ATP; mean ± SE of three independent experiments in duplicate
Measured IC50 of individual entries
Property Label: IC50 (µM)

INSERT INTO measurements (compound, target_entity, unit_of_measure, value_prefix, measurement) VALUES
  ('O=C(Cc1cc[nH]n1)Nc1nc2cc(Cl)c(Cl)cc2[nH]1 [Compound 22]', 'truncated CK1δ (Homo sapiens)', 'µM', '=', 0.98),
  ('O=C(Cc1cc[nH]n1)Nc1nc2cc([N+](=O)[O-])ccc2[nH]1 [Compound 18]', 'truncated CK1δ (Homo sapiens)', 'µM', '=', 0.12),
  ('O=C(Cc1cc[nH]n1)Nc1nc2c([N+](=O)[O-])cccc2[nH]1 [Compound 19]', 'truncated CK1δ (Homo sapiens)', 'µM', '=', 1.22),
  ('COc1ccccc1C(=O)Cn1ccc(C(=O)Nc2nc3cc(C)ccc3[nH]2)n1 [Compound 5]', 'truncated CK1δ (Homo sapiens)', 'µM', '>', 40),
  ('O=C(Cc1cc[nH]n1)Nc1nc2cc(NC(=O)c3ccccc3)ccc2[nH]1 [Compound 28]', 'truncated CK1δ (Homo sapiens)', 'µM', '>', 40),
  ('O=C(Nc1nc2cc([N+](=O)[O-])ccc2[nH]1)c1cc[nH]n1 [Compound 12]', 'truncated CK1δ (Homo sapiens)', 'µM', '>', 40),
  ('O=C(Cc1cc[nH]n1)Nc1nc2ccccc2[nH]1 [Compound 13]', 'truncated CK1δ (Homo sapiens)', 'µM', '=', 4.21),
  ('NC(=O)c1ccc2[nH]c(NC(=O)Cc3cc[nH]n3)nc2c1 [Compound 24]', 'truncated CK1δ (Homo sapiens)', 'µM', '=', 2.53),
  ('O=C(Nc1nc2cc(C(F)(F)F)ccc2[nH]1)c1cc[nH]n1 [Compound 10]', 'truncated CK1δ (Homo sapiens)', 'µM', '>', 40),
  ('N#Cc1ccc2[nH]c(NC(=O)Cc3cc[nH]n3)nc2c1 [Compound 23]', 'truncated CK1δ (Homo sapiens)', 'µM', '=', 0.0986),
  ('NS(=O)(=O)c1ccc2[nH]c(NC(=O)Cc3cc[nH]n3)nc2c1 [Compound 25]', 'truncated CK1δ (Homo sapiens)', 'µM', '>', 40),
  ('Cc1ccc2[nH]c(NC(=O)c3cc[nH]n3)nc2c1 [Compound 8]', 'truncated CK1δ (Homo sapiens)', 'µM', '>', 40),
  ('O=C(Nc1nc2ccccc2[nH]1)c1cc[nH]n1 [Compound 7]', 'truncated CK1δ (Homo sapiens)', 'µM', '>', 40),
  ('Cn1c(NC(=O)Cc2cc[nH]n2)nc2ccc(Cl)cc21 [Compound 32]', 'truncated CK1δ (Homo sapiens)', 'µM', '=', 20.1),
  ('CC(=O)Nc1ccc2[nH]c(NC(=O)Cc3cc[nH]n3)nc2c1 [Compound 27]', 'truncated CK1δ (Homo sapiens)', 'µM', '>', 40),
  ('O=C(Cc1cc[nH]n1)Nc1nc2cc(OC(F)(F)F)ccc2[nH]1 [Compound 21]', 'truncated CK1δ (Homo sapiens)', 'µM', '=', 5.99),
  ('O=C(Cc1cc[nH]n1)Nc1nc2c(NC(=O)c3ccccc3)cccc2[nH]1 [Compound 29]', 'truncated CK1δ (Homo sapiens)', 'µM', '>', 40),
  ('CC(C)(C)c1ccc2[nH]c(NC(=O)Cc3cc[nH]n3)nc2c1 [Compound 20]', 'truncated CK1δ (Homo sapiens)', 'µM', '=', 1),
  ('COc1ccc2[nH]c(NC(=O)c3cc[nH]n3)nc2c1 [Compound 11]', 'truncated CK1δ (Homo sapiens)', 'µM', '>', 40);

###

Measured pIC50 of individual entries
# Target Entity: truncated CK1δ (Homo sapiens, UniProt P48730)
# Construct: truncated CK1δ, recombinant human, GST-tagged, aa 1-294, Merck Millipore; GST
# Sequence (P48730 1-294): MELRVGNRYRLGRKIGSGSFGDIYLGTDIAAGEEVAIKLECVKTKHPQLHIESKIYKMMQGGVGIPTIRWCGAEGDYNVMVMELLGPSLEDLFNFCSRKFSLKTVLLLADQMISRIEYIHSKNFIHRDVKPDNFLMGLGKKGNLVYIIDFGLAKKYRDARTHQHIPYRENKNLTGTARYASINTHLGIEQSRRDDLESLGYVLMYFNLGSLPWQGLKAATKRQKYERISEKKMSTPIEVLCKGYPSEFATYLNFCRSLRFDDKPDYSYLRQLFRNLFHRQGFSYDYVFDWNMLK
# Method Summary: CK1δ luminescent kinase assay (Kinase Glo kit)
# Condition Notes: truncated recombinant human CK1δ (aa 1-294), casein substrate, 2 μM ATP; mean ± SE of three independent experiments in duplicate
pIC50: −log10 of the molar value.
Property Label: pIC50

INSERT INTO assay_data (molecule, target_entity, property_label, value_prefix, measurement) VALUES
  ('COc1ccccc1C(=O)Cn1ccc(C(=O)Nc2nc3ccccc3[nH]2)n1 [Compound 4]', 'truncated CK1δ (Homo sapiens, UniProt P48730)', 'pIC50', '<', 4.40),
  ('O=C(Nc1nc2cc(Cl)ccc2[nH]1)c1cc[nH]n1 [Compound 9]', 'truncated CK1δ (Homo sapiens, UniProt P48730)', 'pIC50', '<', 4.40),
  ('O=C(Cc1cc[nH]n1)Nc1nc2cc(C(F)(F)F)ccc2[nH]1 [Compound 16]', 'truncated CK1δ (Homo sapiens, UniProt P48730)', 'pIC50', '=', 5.76),
  ('O=C(Cc1cc[nH]n1)Nc1nc2cc(Cl)ccc2[nH]1 [Compound 15]', 'truncated CK1δ (Homo sapiens, UniProt P48730)', 'pIC50', '=', 6.31),
  ('COc1ccc2[nH]c(NC(=O)Cc3cc[nH]n3)nc2c1 [Compound 17]', 'truncated CK1δ (Homo sapiens, UniProt P48730)', 'pIC50', '=', 5.20),
  ('O=C(Cn1ccc(C(=O)Nc2nc3ccccc3[nH]2)n1)c1ccccc1 [Compound 1]', 'truncated CK1δ (Homo sapiens, UniProt P48730)', 'pIC50', '<', 4.40),
  ('Cc1ccc2[nH]c(NC(=O)Cc3cc[nH]n3)nc2c1 [Compound 14]', 'truncated CK1δ (Homo sapiens, UniProt P48730)', 'pIC50', '=', 5.79);

###

Property Label: melting point

INSERT INTO measurements (structure, measurement) VALUES
  ('Cc1ccc2[nH]c(NC(=O)Cc3cc[nH]n3)nc2c1', '257 °C (dec.)'),
  ('O=C(Nc1nc2cc(Cl)ccc2[nH]1)c1cc[nH]n1', '> 300 °C'),
  ('O=C(Cn1ccc(C(=O)Nc2nc3cc(Cl)ccc3[nH]2)n1)c1ccccc1', '200 to 203 °C'),
  ('O=C(Nc1nc2cc(C(F)(F)F)ccc2[nH]1)c1cc[nH]n1', '> 300 °C'),
  ('O=C(Nc1nc2ccccc2[nH]1)c1cc[nH]n1', '> 300 °C'),
  ('O=C(Cc1cc[nH]n1)Nc1nc2cc([N+](=O)[O-])ccc2[nH]1', '272 to 274 °C'),
  ('O=C(Cn1ccc(C(=O)Nc2nc3ccccc3[nH]2)n1)c1ccccc1', '220 to 221 °C'),
  ('COc1ccccc1C(=O)Cn1ccc(C(=O)Nc2nc3cc(Cl)ccc3[nH]2)n1', '219 to 221 °C'),
  ('O=C(Cc1cc[nH]n1)Nc1nc2cc(-c3nnn[nH]3)ccc2[nH]1', '> 300 °C'),
  ('NS(=O)(=O)c1ccc2[nH]c(NC(=O)Cc3cc[nH]n3)nc2c1', '285 to 287 °C'),
  ('Cc1ccc2[nH]c(NC(=O)c3ccn(CC(=O)c4ccccc4)n3)nc2c1', '199 to 200 °C'),
  ('NC(=O)c1ccc2[nH]c(NC(=O)Cc3cc[nH]n3)nc2c1', '290 to 292 °C'),
  ('O=C(Cc1cc[nH]n1)Nc1nc2cc(Cl)ccc2[nH]1', '286 to 288 °C'),
  ('CNS(=O)(=O)c1ccc2[nH]c(NC(=O)Cc3cc[nH]n3)nc2c1', '238 to 240 °C'),
  ('COc1ccc2[nH]c(NC(=O)c3cc[nH]n3)nc2c1', '> 300 °C'),
  ('COc1ccccc1C(=O)Cn1ccc(C(=O)Nc2nc3cc(C)ccc3[nH]2)n1', '201 to 203 °C'),
  ('O=C(Cc1cc[nH]n1)Nc1nc2cc(-n3cncn3)ccc2[nH]1', '269 to 271 °C'),
  ('O=C(Cc1cc[nH]n1)Nc1nc2ccccc2[nH]1', '295 to 297 °C'),
  ('Cc1ccc2[nH]c(NC(=O)c3cc[nH]n3)nc2c1', '> 300 °C');
